Test system: SW-620 colon
Assay: NCI tumour cell line growth inhibition, 48 h
measurement-name: TGI (µM)
Give the quantity in µM, number only.

Solved entries (count: 3):
Recorded TGI of `COc1ccc(-c2c3c(N)c4c(nc3nc3c2c(C)nn3-c2ccccc2)CCCC4)cc1` , please.
11.8

Recorded TGI of `COC1=C(OC)[C@]2(OC)c3c(O)c(OC)c4c(c3O[C@@]23O[C@@H](c2ccccc2)CC=C3C1=O)[C@@H](OC)C[C@H](c1ccccc1)O4` , please.
0.933

Recorded TGI of `c1ccc(C2CCCCC2)c(OCCCCCN2CCNCC2)c1` , please.
3.8

Others:
Recorded TGI of `O=C1C(Sc2ccc3ccccc3c2)=C(Sc2ccc3ccccc3c2)C(=O)c2ccccc21` , please.
16.5

Recorded TGI of `CSC(=N)N1N=C2/C(=C/c3ccccc3)CCC[C@H]2[C@H]1c1ccccc1` , please.
15.3

Recorded TGI of `O=[N+]([O-])C(=C/c1cccc2ccccc12)/C(=C\c1cccc2ccccc12)[N+](=O)[O-]` , please.
4.5

====

Test system: NCI-H226 lung
Test: NCI tumour cell line growth inhibition, 48 h
Overview of recorded GI50 for various compounds

Solved entries (count: 6):
Recorded GI50 of `C[C@H]1CN(C2COC2)CCN1c1ccc(Nc2cc(-c3ccnc(N4CCn5c(cc6c5CC(C)(C)C6)C4=O)c3CO)cn(C)c2=O)nc1` , please.
19.6 µM

Recorded GI50 of `C=CC(=O)N[C@@H](/C=C/C(=O)OCC)Cc1ccc(-c2cc(Cl)cc(Cl)c2)cc1` , please.
16.7 µM

Recorded GI50 of `C[C@@H](NC(=O)c1ccc(F)cc1)c1ccc2c(c1)CCN2C(=O)C1CCOCC1` , please.
> 100 µM

Recorded GI50 of `NCc1ccc(-c2nc(-c3ccc(Cl)c(O)c3)c(-c3ccncc3)[nH]2)cc1` , please.
> 25 µM

Recorded GI50 of `O=S(=O)(NCCCNc1nccc(-c2c(-c3ccc(F)cc3)nc3sccn23)n1)c1ccc(F)cc1` , please.
4.76 µM

Recorded GI50 of `O=C1/C(=C/c2ccccc2O)N=C(c2ccccc2)N1c1cc(C(F)(F)F)ccc1Cl` , please.
33 µM

Proceed to the following item.
Recorded GI50 of `COC1=C(OC)C(=O)C(CCCCCCCCCCO)=C(C)C1=O` , please.
13.8 µM

====

System: 786-0 renal
Test: NCI tumour cell line growth inhibition, 48 h
Overview of recorded TGI for various compounds

Solved entries (count: 2):
Recorded TGI of `O=C(c1cc(Cc2n[nH]c(=O)c3ccccc23)ccc1F)N1CCN(C(=O)C2CC2)CC1` , please.
> 100 µM

Recorded TGI of CC(N)CC(=O)O (stereo not drawn) , please.
> 5000 µM

Proceed to the following item.
Recorded TGI of N#CNC1=NC(N)C(c2nc3ccccc3[nH]2)=C(CCCC(=O)Nc2cccc([N+](=O)[O-])c2)N1 (stereo not drawn) , please.
> 100 µM

====

System: KM12 colon
Test: NCI tumour cell line growth inhibition, 48 h
Overview of recorded GI50 for various compounds

Look up GI50 with KM12 colon for this compound: `NCc1ccc(-c2nc(-c3ccc(Cl)c(O)c3)c(-c3ccncc3)[nH]2)cc1`
> 25 µM

Proceed to the following item.
Look up GI50 with KM12 colon for this compound: `CCn1ccnc1C(=O)/C=C/c1ccc(CC(=O)Nc2ccc(F)cc2)cc1`
3.06 µM

====

Test system: SF-295 CNS
Experiment: NCI tumour cell line growth inhibition, 48 h
measurement-name: TGI

Solved entries (count: 6):
Recorded TGI of `CCOC(=O)/C=C\C(C#N)(C#N)N=Cc1ccsc1` , please.
46.6 µM

Recorded TGI of `c1ccc2cc3c(cc2c1)OP1(Oc2cccc4cccnc24)(O3)Oc2cc3ccccc3cc2O1` , please.
> 58.9 µM

Recorded TGI of `CC(=O)NCCCCN(CCCNC(C)=O)C(=O)OCc1ccccc1` , please.
> 100 µM

Recorded TGI of CCOC(=O)C(Cc1ccc(N(CCCl)CCCl)cc1)NC(=O)C(Cc1ccccc1)NC(C)=O (centres undefined) , please.
> 0.501 µM

Recorded TGI of C=C1C=CC2(Br)OC3CC(C)(Cl)C(Br)CC13C2(C)C (centres undefined) , please.
45.5 µM

Recorded TGI of `Cn1nc(-c2ccccc2)c(C(=O)/C=C/c2ccc(Cl)cc2)c(N2CCOCC2)c1=O` , please.
4.79 µM

Others:
Recorded TGI of `C[C@H]1C[C@H]2[C@@H]3CCC4=CC(=O)C=C[C@]4(C)C3=CC[C@]2(C)[C@@]1(O)C(=O)CO` , please.
> 100 µM

Recorded TGI of `CC(C)CCC[C@@H](C)[C@H]1CC[C@H]2C3=C[C@H](OS(=O)(=O)O)[C@@]4(O)C[C@@H](O)CC[C@]4(C)[C@@]3(O)CC[C@]12C` , please.
> 100 µM

Recorded TGI of CCc1ccccc1NC(=O)CC1NC(=O)CS1 (centres undefined) , please.
> 100 µM

Recorded TGI of `N#Cc1cccc(Nc2ncc(-c3ccccc3)o2)c1` , please.
> 25 µM

Recorded TGI of `NCc1ccc(-c2nc(-c3ccc(Cl)c(O)c3)c(-c3ccncc3)[nH]2)cc1` , please.
> 25 µM

Recorded TGI of `BrCc1ccc(CBr)c2c1-c1c(CBr)ccc3ccc(CBr)c-2c13` , please.
> 100 µM

Recorded TGI of `CSc1nc2c3ccccc3ccn2c1C(=O)N/N=C/c1ccccc1` , please.
> 72.4 µM

Recorded TGI of Cc1cc2c(c(=O)o1)C1=S(SC(c3ccccc3)=C1)S2 (centres undefined) , please.
88 µM

====

Tested on: SNB-19 CNS
Experiment: NCI tumour cell line growth inhibition, 48 h
measurement-name: TGI

Solved entries (count: 10):
Recorded TGI of `C/C(N=NS(=O)(=O)c1ccc(C)cc1)=C1\C=CC=CN1O` , please.
> 100 µM

Recorded TGI of `O=C(Nc1nc2ncn(CCO)c2c(=O)[nH]1)c1ccccc1` , please.
> 100 µM

Recorded TGI of `COc1ccc(C(=O)Oc2c(C#N)sc3c2c(=O)n(-c2ccccc2)c(=S)n3-c2ccccc2)cc1` , please.
> 100 µM

Recorded TGI of O=C(Cc1ccccc1)C(c1ccccc1)S(=O)(=O)c1ccccc1 (stereo not drawn) , please.
> 100 µM

Recorded TGI of Cc1cc2c(c(=O)o1)C1=S(SC(c3ccccc3)=C1)S2 (stereo not drawn) , please.
> 100 µM

Recorded TGI of `O=C1/C(=C/c2cccs2)NC(=S)N1CN1CCCCC1` , please.
> 100 µM

Recorded TGI of `COc1cc(C(=O)O)c(-c2cc3c(cc2C=O)OCO3)c(OC)c1OC` , please.
> 10 µM

Recorded TGI of `O=C(O)CCCc1ccccc1` , please.
> 1000 µM

Recorded TGI of `CSC1=Nc2c(c(C)c(-c3ccccc3)n2COC(CO)CO)C2=NC(=O)CN12` , please.
> 100 µM

Recorded TGI of `NC(=O)c1sc2nc3ccccc3n2c1N` , please.
> 100 µM

Others:
Recorded TGI of `CC(=O)N(CC(=O)C(=O)NNc1ccoc1)c1ccc(Cl)cc1` , please.
> 100 µM

Recorded TGI of `COc1cc(-c2cc(=O)c3ccccc3[nH]2)cc(OC)c1OC` , please.
> 75 µM

Recorded TGI of `Cc1ccc(NC(=O)/C(C#N)=C/c2ccccc2)c(C)c1` , please.
> 100 µM

====

Test system: SN12C renal
Experiment: NCI tumour cell line growth inhibition, 48 h
Overview of recorded GI50 for various compounds

Recorded GI50 of `COc1ccc(-c2c3c(N)c4c(nc3nc3c2c(C)nn3-c2ccccc2)CCCC4)cc1` , please.
3.72 µM

Recorded GI50 of `COc1ccc2c(c1)C(=O)c1c-2c(=O)n(CCCN(C)C)c2cc(OC)c(OC)cc12` , please.
2.18 µM

Recorded GI50 of `CCN(Cc1ccc(F)cc1)c1ccc(CO)c(C(F)(F)F)c1` , please.
12.9 µM

Proceed to the following item.
Recorded GI50 of COc1cc(/C=C/C(=O)O[C@H]2[C@H](O[C@@H]3O[C@@H](C)[C@H](O)[C@@H](O)[C@H]3O)[C@@H](O)[C@H](OCCc3ccc(O)c(O)c3)O[C@@H]2COC2OCC(O)(CO)C2O)ccc1O (some centres undefined) , please.
> 100 µM

====

Overview of recorded TGI for various compounds
System: OVCAR-8 ovarian
Assay: NCI tumour cell line growth inhibition, 48 h

Solved entries (count: 4):
Recorded TGI of `NCc1ccc(-c2nc(-c3ccc(Cl)c(O)c3)c(-c3ccncc3)[nH]2)cc1` , please.
> 25 µM

Recorded TGI of `CN1C(=NCCO)NS(=O)(=O)c2ccccc21` , please.
> 100 µM

Recorded TGI of `CC(=O)Nc1ccc(S(=O)(=O)NN(C)S(=O)(=O)c2ccc(C)cc2)cc1` , please.
> 100 µM

Recorded TGI of `C[C@H]1C[C@H]2[C@@H]3CCC4=CC(=O)C=C[C@]4(C)C3=CC[C@]2(C)[C@@]1(O)C(=O)CO` , please.
> 100 µM

Proceed to the following item.
Recorded TGI of `CC(=O)NCCCCN(CCCNC(C)=O)C(=O)OCc1ccccc1` , please.
> 100 µM
